Target: Heat shock protein HSP 90-alpha (Homo sapiens)
Format: functional, organism-based
Activity calls are given as the source filed them.
measuredProperty: AC50

{"molecule": "O=[N+]([O-])c1ccc(N2N=C(c3ccccc3)CC2c2ccccc2O)cc1 (stereo not drawn)", "AC50": "3.31 µM (active)"}

IN: Suppose we examine the molecule CN(C)/C=C/C(=O)c1ccc2noc(-c3cccc(F)c3)c2c1 ; what AC50 value has been reported?
OUT: 7.95 µM (active)

IN: Please give the measured AC50 for this molecule: CCN1CCN(C(c2ccc(C(F)(F)F)cc2)c2ccc3cccnc3c2O)CC1 (stereo not drawn)
OUT: 1.36 µM (active)

IN: Give its AC50 value. Item: O=C1C=CC(=O)N1c1ccc(O)cc1
OUT: 3.13 µM (active)

IN: Would you mind telling me what AC50 value was observed for O=c1oc2ccccc2c(O)c1Cc1cc(Cl)c2cccnc2c1O ?
OUT: 7.2 µM (active)

IN: What value of AC50 has been recorded for this entry: Cc1cc(N2CCN(C(=O)c3ccco3)CC2)n2ncc(-c3ccccc3)c2n1
OUT: 2.23 µM (active)

IN: // query AC50 value for entry O=c1c2ccccc2nnn1CSc1nnc(COc2ccc(Cl)cc2)n1Cc1ccco1
OUT: 3.26 µM (active)

IN: What does the data say about its AC50? Entry: COc1ccccc1NC(=O)COC(=O)c1ccc([N+](=O)[O-])s1
OUT: 6.12 µM (active)
